The measurements presented in this section are drawn from ChEMBL document CHEMBL5321294.

Assay: in vivo
Conditions: C57BL/6, mouse, brain, ip, 25 mg/kg
Description: Half life in C57BL/6 mouse brain at 25 mg/kg, ip
MEASURED_QUANTITY: half-life (min)
One number for each entry, in min.

Prompt line: Which half-life value belongs to O=C(CCCCCCC(=O)Nc1ccccc1)NO [VORINOSTAT] ?
Response line: 26.4

----------
Biological target: Histone deacetylase 3 (Homo sapiens)
Test: Binding affinity to HDAC3 (unknown origin) assessed as inhibition constant
Non-standard residues stand in square brackets, D forms with d. Residues, ends and D or L forms follow the SMILES beside them. *: point of attachment. Asu = N[C@@H](CCCCCC(=O)O)C(=O)O; dPip = O=C(O)[C@H]1CCCCN1; NHOH = ON*
Can you tell me Ki for the items I'm about to list?

Below, each entry is followed by its recorded Ki result.
[
  {
    "MOLECULE": "O=C(CCCCC[C@@H]1NC(=O)[C@H]2CCCN2C(=O)[C@H](Cc2ccccc2)NC(=O)[C@H](Cc2ccccc2)NC1=O)NO (cyclo([Asu](NHOH)FF[dP]))",
    "ENDPOINT_RESULT": "0.2 nM"
  },
  {
    "MOLECULE": "Nc1ccc(-c2ccccc2)cc1NC(=O)CCCCCC(=O)Nc1ccccc1",
    "ENDPOINT_RESULT": "2500 nM"
  },
  {
    "MOLECULE": "CCC(=O)CCCCC[C@@H]1NC(=O)[C@H]2CCCCN2C(=O)[C@H]([C@@H](C)CC)NC(=O)[C@H](Cc2c[nH]c3ccccc23)NC1=O",
    "ENDPOINT_RESULT": "600 nM"
  }
]

# ---- query molecule ----
Prompt line: Which Ki value belongs to CC[C@H](C)[C@@H]1NC(=O)[C@H](Cc2c[nH]c3ccccc23)NC(=O)[C@H](CCCCCC(=O)NO)NC(=O)[C@H]2CCCCN2C1=O (cyclo([Asu](NHOH)WI[dPip])) ?
Response line: 0.04 nM

----------
Target: Histone deacetylase 3 (Homo sapiens, UniProt O15379)
Sequence (O15379 whole entry): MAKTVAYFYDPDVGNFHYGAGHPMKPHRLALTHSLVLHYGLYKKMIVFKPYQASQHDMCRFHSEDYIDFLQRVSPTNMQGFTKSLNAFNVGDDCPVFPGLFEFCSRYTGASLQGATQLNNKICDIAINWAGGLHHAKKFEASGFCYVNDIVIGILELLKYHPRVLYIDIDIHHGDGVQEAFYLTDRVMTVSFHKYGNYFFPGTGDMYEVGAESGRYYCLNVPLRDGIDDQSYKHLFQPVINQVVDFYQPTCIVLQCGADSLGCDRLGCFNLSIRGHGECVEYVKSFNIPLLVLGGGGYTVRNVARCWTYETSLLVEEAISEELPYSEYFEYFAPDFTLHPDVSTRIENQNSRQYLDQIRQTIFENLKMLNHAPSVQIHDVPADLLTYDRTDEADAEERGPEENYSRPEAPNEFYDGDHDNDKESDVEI
Test: Binding affinity to HDAC3 (unknown origin) assessed as inhibition constant(ki,1)
Non-standard residues stand in square brackets, D forms with d. Residues, ends and D or L forms follow the SMILES beside them. *: point of attachment. Asu = N[C@@H](CCCCCC(=O)O)C(=O)O; dPip = O=C(O)[C@H]1CCCCN1; NHOH = ON*
Can you tell me pKi for the items I'm about to list?
Give bare numbers, as −log10 of the molar value.

[
  {
    "COMPOUND": "CC[C@H](C)[C@@H]1NC(=O)[C@H](Cc2c[nH]c3ccccc23)NC(=O)[C@H](CCCCCC(=O)NO)NC(=O)[C@H]2CCCCN2C1=O (cyclo([Asu](NHOH)WI[dPip]))",
    "SUBJECT_OF_TEST": "Histone deacetylase 3 (Homo sapiens, UniProt O15379)",
    "pKi": 8.80
  }
]

# ---- query compound ----
Prompt line: Which pKi value belongs to O=C(CCCCC[C@@H]1NC(=O)[C@H]2CCCN2C(=O)[C@H](Cc2ccccc2)NC(=O)[C@H](Cc2ccccc2)NC1=O)NO (cyclo([Asu](NHOH)FF[dP])) ?
Response line: 8.85

----------
Target: Histone deacetylase 1 (Homo sapiens, UniProt Q13547)
Sequence (Q13547 whole entry): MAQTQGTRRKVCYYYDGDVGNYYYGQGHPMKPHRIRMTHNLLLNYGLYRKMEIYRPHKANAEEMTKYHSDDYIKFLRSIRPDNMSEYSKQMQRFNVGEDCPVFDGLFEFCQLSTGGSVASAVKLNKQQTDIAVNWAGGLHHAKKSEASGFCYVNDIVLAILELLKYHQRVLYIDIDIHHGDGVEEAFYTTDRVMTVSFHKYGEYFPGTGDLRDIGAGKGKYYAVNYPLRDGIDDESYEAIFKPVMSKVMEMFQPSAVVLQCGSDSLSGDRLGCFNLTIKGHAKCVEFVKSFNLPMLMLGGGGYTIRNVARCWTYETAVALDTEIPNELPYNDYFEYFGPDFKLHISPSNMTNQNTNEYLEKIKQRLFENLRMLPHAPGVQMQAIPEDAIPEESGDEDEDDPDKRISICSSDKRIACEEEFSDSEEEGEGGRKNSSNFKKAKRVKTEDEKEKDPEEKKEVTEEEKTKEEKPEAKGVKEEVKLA
Test: Inhibition of HDAC1 (unknown origin) measured after 1 hrs by fluorescence based assay
Can you tell me IC50 for the items I'm about to list?
Numbers only, in µM.

[
  {
    "STRUCTURE_AS_SMILES": "O=C(/C=C(\\CO)c1ccccc1)c1ccccc1",
    "SCALE_UNIT": "µM",
    "IC50": 3.68
  }
]

Prompt line: Which IC50 value belongs to NC/C(=C\C(=O)c1ccccc1)c1ccccc1 ?
Response line: 5.96

----------
Biological target: Protein deacetylase HDAC6 (Homo sapiens, UniProt Q9UBN7)
Sequence (Q9UBN7 whole entry): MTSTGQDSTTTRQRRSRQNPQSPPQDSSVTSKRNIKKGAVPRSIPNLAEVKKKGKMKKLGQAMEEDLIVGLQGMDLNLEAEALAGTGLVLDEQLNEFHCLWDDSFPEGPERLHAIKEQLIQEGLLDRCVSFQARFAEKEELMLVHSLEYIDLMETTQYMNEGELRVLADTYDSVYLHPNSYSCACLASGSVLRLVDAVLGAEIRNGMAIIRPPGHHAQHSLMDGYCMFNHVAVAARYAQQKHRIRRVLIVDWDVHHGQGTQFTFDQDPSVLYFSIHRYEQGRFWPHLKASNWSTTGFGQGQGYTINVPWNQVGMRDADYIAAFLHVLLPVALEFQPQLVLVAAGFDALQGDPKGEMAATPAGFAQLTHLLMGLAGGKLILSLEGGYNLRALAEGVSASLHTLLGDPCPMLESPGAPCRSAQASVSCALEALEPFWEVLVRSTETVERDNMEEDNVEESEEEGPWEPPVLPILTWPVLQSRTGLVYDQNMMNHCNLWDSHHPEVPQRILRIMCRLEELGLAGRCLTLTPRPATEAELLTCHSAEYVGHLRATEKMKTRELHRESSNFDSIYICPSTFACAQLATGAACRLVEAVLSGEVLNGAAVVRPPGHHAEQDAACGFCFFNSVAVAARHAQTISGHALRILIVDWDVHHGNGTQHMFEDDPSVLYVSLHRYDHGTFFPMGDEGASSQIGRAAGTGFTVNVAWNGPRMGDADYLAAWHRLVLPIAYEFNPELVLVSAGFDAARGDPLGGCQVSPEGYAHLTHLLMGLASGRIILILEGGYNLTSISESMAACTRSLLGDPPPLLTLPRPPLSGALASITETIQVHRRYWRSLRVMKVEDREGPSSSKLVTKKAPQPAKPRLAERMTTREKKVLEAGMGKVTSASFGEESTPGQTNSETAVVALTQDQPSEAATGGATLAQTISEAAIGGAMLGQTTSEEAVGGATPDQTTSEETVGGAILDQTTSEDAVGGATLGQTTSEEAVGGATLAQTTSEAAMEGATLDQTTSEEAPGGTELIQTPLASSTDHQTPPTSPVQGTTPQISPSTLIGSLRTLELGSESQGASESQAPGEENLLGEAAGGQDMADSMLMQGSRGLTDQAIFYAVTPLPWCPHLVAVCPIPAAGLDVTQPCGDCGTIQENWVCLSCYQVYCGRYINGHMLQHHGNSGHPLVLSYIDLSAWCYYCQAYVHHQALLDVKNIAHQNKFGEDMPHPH
Experiment: Binding affinity to recombinant human HDAC6 using Ac-Leu-Gly-Lys(Ac)-AMC as substrate measured after 60 mins assessed as inhibition constant (ki,1) by fluorescence based assay
Non-standard residues stand in square brackets, D forms with d. Residues, ends and D or L forms follow the SMILES beside them. *: point of attachment. Asu = N[C@@H](CCCCCC(=O)O)C(=O)O; dPip = O=C(O)[C@H]1CCCCN1; NHOH = ON*
Can you tell me Ki for the items I'm about to list?
Numbers only, in nM.

[
  {
    "COMPOUND": "O=C(CCCCC[C@@H]1NC(=O)[C@H]2CCCN2C(=O)[C@H](Cc2ccccc2)NC(=O)[C@H](Cc2ccccc2)NC1=O)NO (cyclo([Asu](NHOH)FF[dP]))",
    "ENDPOINT_RESULT": 34
  }
]

# ---- query compound ----
Prompt line: Which Ki value belongs to CC[C@H](C)[C@@H]1NC(=O)[C@H](Cc2c[nH]c3ccccc23)NC(=O)[C@H](CCCCCC(=O)NO)NC(=O)[C@H]2CCCCN2C1=O (cyclo([Asu](NHOH)WI[dPip])) ?
Response line: 23

----------
Biological target: Histone deacetylase 1 (Homo sapiens)
MEASURED_QUANTITY: pKi
One number for each entry, as −log10 of the molar value.

Prompt line: Which pKi value belongs to C/C=C1\NC(=O)[C@H]2CSSCC/C=C/[C@H](CC(=O)N[C@H](C(C)C)C(=O)N2)OC(=O)[C@H](C(C)C)NC1=O [ROMIDEPSIN] ?
Response line: 9.06

----------
Biological target: UniProtKB Q13547
Experiment: Binding affinity to HDAC1 (unknown origin) assessed as inhibition constant
MEASURED_QUANTITY: Ki (nM)
One number for each entry, in nM.

Give measured Ki for every item shown.
1. Nc1ccc(-c2ccccc2)cc1NC(=O)CCCCCC(=O)Nc1ccccc1
2. CCC(=O)CCCCC[C@@H]1NC(=O)[C@H]2CCCCN2C(=O)[C@H]([C@@H](C)CC)NC(=O)[C@H](Cc2c[nH]c3ccccc23)NC1=O

Response line:
7
400

----------
Target: Histone deacetylase 3 (Homo sapiens)
Test: Binding affinity to HDAC3 (unknown origin) assessed as binding constant(k-2)
Non-standard residues stand in square brackets, D forms with d. Residues, ends and D or L forms follow the SMILES beside them. *: point of attachment. Asu = N[C@@H](CCCCCC(=O)O)C(=O)O; dPip = O=C(O)[C@H]1CCCCN1; NHOH = ON*
MEASURED_QUANTITY: K (min⁻¹)
Give bare numbers, in min⁻¹.

[
  {
    "MOLECULE": "C[C@@H]1NC(=O)[C@H]2CCCN2C(=O)[C@H](CCCCCC(=O)[C@@H]2CO2)NC(=O)[C@@H](C)NC1=O",
    "SUBJECT_OF_TEST": "Histone deacetylase 3 (Homo sapiens)",
    "SCALE_UNIT": "min⁻¹",
    "ENDPOINT_RESULT": 0.012
  },
  {
    "MOLECULE": "O=C(CCCCC[C@@H]1NC(=O)[C@H]2CCCN2C(=O)[C@H](Cc2ccccc2)NC(=O)[C@H](Cc2ccccc2)NC1=O)NO (cyclo([Asu](NHOH)FF[dP]))",
    "SUBJECT_OF_TEST": "Histone deacetylase 3 (Homo sapiens)",
    "SCALE_UNIT": "min⁻¹",
    "ENDPOINT_RESULT": 0.004
  }
]

# ---- query molecule ----
Prompt line: Which K value belongs to CC[C@H](C)[C@@H]1NC(=O)[C@H](Cc2c[nH]c3ccccc23)NC(=O)[C@H](CCCCCC(=O)NO)NC(=O)[C@H]2CCCCN2C1=O (cyclo([Asu](NHOH)WI[dPip])) ?
Response line: 0.009

----------
Target: Protein deacetylase HDAC6 (Homo sapiens, UniProt Q9UBN7)
Experiment: Binding affinity to N-terminal GST-tagged human full length HDAC6 expressed in baculovirus infected Sf9 cells using Fluor-de-Lys Green as substrate assessed as inhibition constant
MEASURED_QUANTITY: pKi
Answers are plain numbers, as −log10 of the molar value.

Prompt line: Which pKi value belongs to FC(F)c1nnc(-c2ccc(Cn3cc(-c4ccc(NC5N=CCN5)cc4)nn3)cc2)o1 (stereo unspecified) ?
Response line: 8.32

----------
Target: Histone deacetylase 3 (Homo sapiens, UniProt O15379)
Experiment: Binding affinity to HDAC3 (unknown origin) assessed as binding constant(k2)
Non-standard residues stand in square brackets, D forms with d. Residues, ends and D or L forms follow the SMILES beside them. *: point of attachment. Asu = N[C@@H](CCCCCC(=O)O)C(=O)O; dPip = O=C(O)[C@H]1CCCCN1; NHOH = ON*
Can you tell me K for the items I'm about to list?
Give bare numbers, in min⁻¹.

Below, each entry is followed by its recorded K result.
[
  {
    "COMPOUND": "O=C(CCCCC[C@@H]1NC(=O)[C@H]2CCCN2C(=O)[C@H](Cc2ccccc2)NC(=O)[C@H](Cc2ccccc2)NC1=O)NO (cyclo([Asu](NHOH)FF[dP]))",
    "SUBJECT_OF_TEST": "Histone deacetylase 3 (Homo sapiens, UniProt O15379)",
    "SCALE_UNIT": "min⁻¹",
    "K": 0.26
  },
  {
    "COMPOUND": "CC[C@H](C)[C@@H]1NC(=O)[C@H](Cc2c[nH]c3ccccc23)NC(=O)[C@H](CCCCCC(=O)NO)NC(=O)[C@H]2CCCCN2C1=O (cyclo([Asu](NHOH)WI[dPip]))",
    "SUBJECT_OF_TEST": "Histone deacetylase 3 (Homo sapiens, UniProt O15379)",
    "SCALE_UNIT": "min⁻¹",
    "K": 0.158
  },
  {
    "COMPOUND": "O=C(CCCCCCC(=O)C(F)(F)F)Nc1ccccc1",
    "SUBJECT_OF_TEST": "Histone deacetylase 3 (Homo sapiens, UniProt O15379)",
    "SCALE_UNIT": "min⁻¹",
    "K": 0.24
  }
]

Prompt line: Reported K for Histone deacetylase 3 (Homo sapiens, UniProt O15379), given C[C@@H]1NC(=O)[C@H]2CCCN2C(=O)[C@H](CCCCCC(=O)[C@@H]2CO2)NC(=O)[C@@H](C)NC1=O ?
Response line: 0.12
